src = the Immune Epitope Database (IEDB)

# Assayed System: HLA-B*46:01
# Procedure Summary: IEDB peptide-MHC binding, purified MHC/direct/fluorescence; filed as Kd, often an IC50 or EC50 that approximates it; bounds were set here for any values at or beyond the usual limits of such assays
# Measurement Context: source organism: Influenza A virus (A/Hong Kong/507/97(H5N1))
Property Name: Kd

| Construct Sequence | Result |
| --- | --- |
| GTSKIKMKW | ≥ 20 µM |

---

# Assayed System: HLA-B*58:01
# Procedure Summary: IEDB peptide-MHC binding, purified MHC/direct/fluorescence; filed as Kd, often an IC50 or EC50 that approximates it; bounds were set here for any values at or beyond the usual limits of such assays
# Measurement Context: source organism: Rickettsia prowazekii
Property Name: Kd

| Construct Sequence | Result |
| --- | --- |
| YGGKKAVTY | ≥ 20 µM |
